Biological target: CDK2/cyclin A (Homo sapiens, UniProt P24941)
Construct: made in house; host or cells: CDK2: insect cells (baculovirus); cyclin A: E. coli
Experiment: Inhibition of CDK2/cyclin A retinoblastoma kinase activity (Ki; % inhibition)
Type: biochemical
Details: at 0.03 μM
Method: Cyclin-dependent kinase activity was measured by quantifying the enzyme-catalyzed, time-dependent incorporation of radioactive phosphate from [^32P]ATP or [^33P]ATP into a protein substrate. […] The phosphorylated substrate was then captured on a nitrocellulose or phosphocellulose membrane using a 96-well filtration manifold, and unincorporated radioactivity was removed by repeated washing with 0.85% phosphoric acid. Radioactivity was quantified by exposing the dried membranes to a phosphorimager. […]
// reported CDK2 % Inhibition at 0.03 μM per item
API: value field is a number in %; no unit string.

Some solved entries appear below for comparison.
[[record]]
compound = "Nc1nc(Nc2ccc(C(=O)N3CC=CC3)cc2)sc1C(=O)c1c(F)cccc1F [Example G40]"
units_text = "%"
endpoint_value = 4

[[record]]
compound = "CCCCN(CCO)C(=O)c1ccc(Nc2nc(N)c(C(=O)c3c(F)cccc3F)s2)cc1 [Example G4]"
units_text = "%"
endpoint_value = "−7"

[[record]]
compound = "Nc1nc(Nc2ccc(C(=O)NC(CO)c3ccccc3)cc2)sc1C(=O)c1c(F)cccc1F (stereo not drawn) [Example G155]"
units_text = "%"
endpoint_value = 32

[[record]]
compound = "Cc1cc(NC(=O)c2ccc(Nc3nc(N)c(C(=O)c4c(F)cccc4F)s3)cc2)ccc1C(C)C [Example G107]"
units_text = "%"
endpoint_value = "−5"


Please report the measured CDK2 % Inhibition at 0.03 μM for CC(CCc1ccccc1)NC(=O)c1ccc(Nc2nc(N)c(C(=O)c3c(F)cccc3F)s2)cc1 (stereo not drawn) [Example G133] −6

Entry CN(C)CCCCNC(=O)c1ccc(Nc2nc(N)c(C(=O)c3c(F)cccc3F)s2)cc1 [Example G93] needs its CDK2 % Inhibition at 0.03 μM filled in; supply it. −4

Report CDK2 % Inhibition at 0.03 μM for CC(C)CN(C)C(=O)c1ccc(Nc2nc(N)c(C(=O)c3c(F)cccc3F)s2)cc1 [Example G72] 2

For the compound COCCNC(=O)c1ccc(Nc2nc(N)c(C(=O)c3c(F)cccc3F)s2)cc1 [Example G164] , give its reported CDK2 % Inhibition at 0.03 μM. 13

Return CDK2 % Inhibition at 0.03 μM for the following compound: COc1cccc(CCNC(=O)c2ccc(Nc3nc(N)c(C(=O)c4c(F)cccc4F)s3)cc2)c1 [Example G193] 19

====

HCT-116 % Inhibition at 0.1 μM for assorted molecules
test system: HCT-116 cell line; assay: Inhibition of cell growth, MTT tetrazolium salt assay; format: cell-based; settings: HCT-116, at 0.1 μM
The reply should contain only the number, in %.

Before answering, review these 5 worked examples.
[[record]]
molecule = "Nc1nc(Nc2ccc(C(=O)NCC3CCCO3)cc2)sc1C(=O)c1c(F)cccc1F (centres unmarked)"
assayed_target = "HCT-116 cell line"
endpoint_value = 0

[[record]]
molecule = "COc1ccccc1CNC(=O)c1ccc(Nc2nc(N)c(C(=O)c3c(F)cccc3F)s2)cc1"
assayed_target = "HCT-116 cell line"
endpoint_value = 44

[[record]]
molecule = "Nc1nc(Nc2ccc(C(=O)N[C@H]3CCc4ccccc43)cc2)sc1C(=O)c1c(F)cccc1F"
assayed_target = "HCT-116 cell line"
endpoint_value = 17

[[record]]
molecule = "CCN1CC(NC(=O)c2ccc(Nc3nc(N)c(C(=O)c4c(F)cccc4F)s3)cc2)CN1CC"
assayed_target = "HCT-116 cell line"
endpoint_value = 0

[[record]]
molecule = "COCC(C)NC(=O)c1ccc(Nc2nc(N)c(C(=O)c3c(F)cccc3F)s2)cc1 (centres unmarked)"
assayed_target = "HCT-116 cell line"
endpoint_value = 21


Tell me HCT-116 % Inhibition at 0.1 μM reported for CC(CCc1ccccc1)NC(=O)c1ccc(Nc2nc(N)c(C(=O)c3c(F)cccc3F)s2)cc1 (centres unmarked) 0

State, in one line, measured HCT-116 % Inhibition at 0.1 μM of `CN(C)CCCCNC(=O)c1ccc(Nc2nc(N)c(C(=O)c3c(F)cccc3F)s2)cc1` 26

Consider the molecule `Nc1nc(Nc2ccc(C(=O)N[C@@H]3CCc4ccccc43)cc2)sc1C(=O)c1c(F)cccc1F` . State its measured HCT-116 % Inhibition at 0.1 μM. 32

====

Catalogue of CDK4 % Inhibition at 0.03 μM readings, one per entry.
molecular target: human CDK4/cyclin D3 (Homo sapiens); construct: made in house; host or cells: insect cells co-infected with baculovirus vectors; assay: Inhibition of CDK4/cyclin D retinoblastoma kinase activity (Ki; % inhibition); type: biochemical; details: 0.03 μM compound
Sequence (P11802 whole entry): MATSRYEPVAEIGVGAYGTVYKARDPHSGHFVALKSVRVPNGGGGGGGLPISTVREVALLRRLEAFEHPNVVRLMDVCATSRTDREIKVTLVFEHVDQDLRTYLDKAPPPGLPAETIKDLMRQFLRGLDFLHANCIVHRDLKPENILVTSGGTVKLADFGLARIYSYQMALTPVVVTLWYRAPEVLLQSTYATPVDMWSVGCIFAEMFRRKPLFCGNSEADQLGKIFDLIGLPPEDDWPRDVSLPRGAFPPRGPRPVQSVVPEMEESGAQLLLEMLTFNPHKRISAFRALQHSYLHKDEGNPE
Sequence (P30281 1-264 partner limits assumed): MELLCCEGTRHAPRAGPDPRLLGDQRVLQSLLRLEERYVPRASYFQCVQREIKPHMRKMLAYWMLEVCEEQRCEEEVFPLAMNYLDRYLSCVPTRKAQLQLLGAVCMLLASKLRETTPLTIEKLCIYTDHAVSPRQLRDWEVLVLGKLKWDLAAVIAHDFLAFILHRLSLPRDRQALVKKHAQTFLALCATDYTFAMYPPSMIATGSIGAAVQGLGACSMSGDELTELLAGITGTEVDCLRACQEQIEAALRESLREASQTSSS
Quick reminder: number only, in %, skip the unit.

Some solved cases for reference:
[[record]]
compound = "CCOc1ccccc1CNC(=O)c1ccc(Nc2nc(N)c(C(=O)c3c(F)cccc3F)s2)cc1"
units_text = "%"
endpoint_value = 18

[[record]]
compound = "CCN(CCCCO)C(=O)c1ccc(Nc2nc(N)c(C(=O)c3c(F)cccc3F)s2)cc1"
units_text = "%"
endpoint_value = "−1"


Okay, next one:
Give CDK4 % Inhibition at 0.03 μM for the following compound: CCCCC(CO)NC(=O)c1ccc(Nc2nc(N)c(C(=O)c3c(F)cccc3F)s2)cc1 (stereo not drawn) 19

====

Items are presented alongside their recorded CDK2 % Inhibition at 0.03 μM.
biological target: CDK2/cyclin A (Homo sapiens, UniProt P24941); construct: made in house; host or cells: CDK2: insect cells (baculovirus); cyclin A: E. coli; assay: Inhibition of CDK2/cyclin A retinoblastoma kinase activity (Ki; % inhibition); format: biochemical; conditions: at 0.03 μM
The figure you give is taken to be in %; do not add the unit.

[[record]]
compound = "CCN(CCO)C(=O)c1ccc(Nc2nc(N)c(C(=O)c3c(F)cccc3F)s2)cc1 [Example G25]"
units_text = "%"
endpoint_value = "−16"

[[record]]
compound = "COC(CN(C)C(=O)c1ccc(Nc2nc(N)c(C(=O)c3c(F)cccc3F)s2)cc1)OC [Example G19]"
units_text = "%"
endpoint_value = "−7"

[[record]]
compound = "CN(CCc1ccccc1)C(=O)c1ccc(Nc2nc(N)c(C(=O)c3c(F)cccc3F)s2)cc1 [Example G11]"
units_text = "%"
endpoint_value = "−12"


Give me measured CDK2 % Inhibition at 0.03 μM, please, for this compound: Nc1nc(Nc2ccc(C(=O)N3CCCC3)cc2)sc1C(=O)c1c(F)cccc1F [Example G47] −15

Return CDK2 % Inhibition at 0.03 μM for the following compound: Nc1nc(Nc2ccc(C(=O)N3CCN(CCCO)CC3)cc2)sc1C(=O)c1c(F)cccc1F [Example G12] −14

Identify CDK2 % Inhibition at 0.03 μM associated with the compound CCN(CC)CCCNC(=O)c1ccc(Nc2nc(N)c(C(=O)c3c(F)cccc3F)s2)cc1 [Example G127] 10

Provide CDK2 % Inhibition at 0.03 μM value for the following compound: Nc1nc(Nc2ccc(C(=O)N3CCN(C(=O)c4ccco4)CC3)cc2)sc1C(=O)c1c(F)cccc1F [Example G32] 8

Note down CDK2 % Inhibition at 0.03 μM recorded for CN(C)CCCN(C)C(=O)c1ccc(Nc2nc(N)c(C(=O)c3c(F)cccc3F)s2)cc1 [Example G64] 5

====

target: human CDK4/cyclin D3 (Homo sapiens); construct: made in house; host or cells: insect cells co-infected with baculovirus vectors; assay: Inhibition of CDK4/cyclin D retinoblastoma kinase activity (Ki; % inhibition); type: biochemical; conditions: 0.03 μM compound
Assay Metric: CDK4 % Inhibition at 0.03 μM (%)
# unit: % | format: bare number

Example cases with answers are listed next.
[[record]]
molecule = "Cc1ccc(NC(=O)c2ccc(Nc3nc(N)c(C(=O)c4c(F)cccc4F)s3)cc2)cc1 [Example G197]"
assay_metric = "CDK4 % Inhibition at 0.03 μM"
endpoint_value = 9

[[record]]
molecule = "CCOc1ccccc1CCNC(=O)c1ccc(Nc2nc(N)c(C(=O)c3c(F)cccc3F)s2)cc1 [Example G380]"
assay_metric = "CDK4 % Inhibition at 0.03 μM"
endpoint_value = 7

[[record]]
molecule = "CC(=O)N[C@@H]1CCN(C(=O)c2ccc(Nc3nc(N)c(C(=O)c4c(F)cccc4F)s3)cc2)C1 [Example G373]"
assay_metric = "CDK4 % Inhibition at 0.03 μM"
endpoint_value = 10

[[record]]
molecule = "Cc1cccc(CNC(=O)c2ccc(Nc3nc(N)c(C(=O)c4c(F)cccc4F)s3)cc2)c1C [Example G294]"
assay_metric = "CDK4 % Inhibition at 0.03 μM"
endpoint_value = 29

[[record]]
molecule = "Nc1nc(Nc2ccc(C(=O)Nc3cccc(C(F)(F)F)c3)cc2)sc1C(=O)c1c(F)cccc1F [Example G371]"
assay_metric = "CDK4 % Inhibition at 0.03 μM"
endpoint_value = 7

[[record]]
molecule = "Nc1nc(Nc2ccc(C(=O)NCCCCCCO)cc2)sc1C(=O)c1c(F)cccc1F [Example G358]"
assay_metric = "CDK4 % Inhibition at 0.03 μM"
endpoint_value = 7


// below: CDK4 % Inhibition at 0.03 μM requested for another molecule
State recorded CDK4 % Inhibition at 0.03 μM with human CDK4/cyclin D3 (Homo sapiens), entry Nc1nc(Nc2ccc(C(=O)NCCc3c(Cl)cccc3Cl)cc2)sc1C(=O)c1c(F)cccc1F [Example G372] , no comment. 6

Ref: patent US6720346B2
